The measurements presented in this section are drawn from ChEMBL document CHEMBL1130870.

species on record: Canis familiaris; test: Compound was evaluated for half-life period in dogs at a dose of 5 mpk perorally; assay type: ADME, organism-based, Canis lupus familiaris; settings: dog, in vivo, po, 5 mg/kg
Assay metric: T1/2 (h)
Express the result in h but write the number alone.

Query: Could you share which T1/2 value was measured for `Cc1nc(N)ccc1CNC(=O)Cn1c(C)ccc(NS(=O)(=O)Cc2ccccc2)c1=O` ?
Result: 2.52

###

assay: Compound was evaluated for half-life period in dogs at a dose of 5 mpk perorally; type: ADME, organism-based, Canis lupus familiaris; details: dog, in vivo, po, 5 mg/kg
Assay metric: half-life (h)
Just the number please, in h, no unit attached.

Query: Fill in the blank: the reported half-life of `CCCc1ccc(NS(=O)(=O)Cc2ccccc2)c(=O)n1CC(=O)NCc1ccc(N)nc1C` is ____.
Result: 3.15

###

target: Serine protease 1 (Homo sapiens)
Sequence (P07477 whole entry): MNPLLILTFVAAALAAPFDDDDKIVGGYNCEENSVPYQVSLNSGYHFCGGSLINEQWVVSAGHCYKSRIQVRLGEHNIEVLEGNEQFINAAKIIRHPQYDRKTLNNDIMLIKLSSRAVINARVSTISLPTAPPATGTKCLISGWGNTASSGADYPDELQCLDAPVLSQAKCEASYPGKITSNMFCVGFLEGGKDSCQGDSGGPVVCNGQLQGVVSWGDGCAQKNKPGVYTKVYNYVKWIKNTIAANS
Measured Ki, listed per entry.
Please respond with the number in nM and leave the unit unwritten.

[
  {
    "Smiles entry": "Cc1nc(N)ccc1CNC(=O)Cn1c(C2CC2)ccc(NS(=O)(=O)Cc2ccccc2)c1=O",
    "Measurement unit": "nM",
    "Ki": 1700
  }
]

Query: Find Ki (Serine protease 1 (Homo sapiens)) for the entry `Cc1nc(N)ccc1CNC(=O)Cn1c(C)ccc(NS(=O)(=O)Cc2ccc(Cl)cc2)c1=O`
Result: 2600

Query: Identify the measured Ki of `Cc1nc(N)ccc1CNC(=O)Cn1c(C(F)(F)F)ccc(NS(=O)(=O)Cc2ccccc2)c1=O` for Serine protease 1 (Homo sapiens).
Result: 2500

Query: Write down the reported Ki of `Cc1nc(N)ccc1CNC(=O)Cn1c(C2CC2)ccc(NS(=O)(=O)Cc2ccc(Cl)cc2)c1=O` , test system: Serine protease 1 (Homo sapiens).
Result: 1900

###

As shown below, each of these compounds has a reported AUC value.
experiment: Compound was evaluated for area under curve (total concentration) in dogs at a dose of 1 mpk perorally; assay type: ADME, organism-based, Canis lupus familiaris; conditions: dog, in vivo, po, 1 mg/kg
Field: numeric (µM·h). Do not append units.

[
  {
    "Smiles entry": "Cc1nc(N)ccc1CNC(=O)Cn1c(C)ccc(NS(=O)(=O)Cc2ccccc2)c1=O",
    "AUC / µM·h": 9.92
  }
]

Here is another compound to look at.
Query: # lookup: AUC of `CCCc1ccc(NS(=O)(=O)Cc2ccccc2)c(=O)n1CC(=O)NCc1ccc(N)nc1C`
Result: 5.93

###

assay: Bioavailability as Cmax in dogs at 5 mg/kg oral dose; assay type: ADME, organism-based, Canis lupus familiaris; set-up: dose 5 mg/kg, route oral; details: dog, in vivo
Quick reference for Cmax among some compounds
Give the number; µM is assumed, so skip it.

[
  {
    "Compound": "CCCc1ccc(NS(=O)(=O)Cc2ccccc2)c(=O)n1CC(=O)NCc1ccc(N)nc1C",
    "Cmax (µM)": 9.46
  }
]

Switching to the query record.
Query: What does the record list as Cmax for Cc1nc(N)ccc1CNC(=O)Cn1c(C)ccc(NS(=O)(=O)Cc2ccccc2)c1=O [L-374087] ?
Result: 5.31

###

assay: Partition coefficient (logP); type: physicochemical; settings: octanol/water
Some molecules, each annotated with its measured logP.
// print number alone

Study these solved cases before continuing.
[
  {
    "Smiles entry": "Cc1nc(N)ccc1CNC(=O)Cn1c(C)ccc(NS(=O)(=O)Cc2ccccc2)c1=O",
    "logP": 0.69
  },
  {
    "Smiles entry": "Cc1nc(N)ccc1CNC(=O)Cn1c(C2CC2)ccc(NS(=O)(=O)Cc2ccc(Cl)cc2)c1=O",
    "logP": 1.98
  }
]

Field: next molecule
Query: What does the data say about its logP? Entry: `CCCc1ccc(NS(=O)(=O)Cc2ccccc2)c(=O)n1CC(=O)NCc1ccc(N)nc1C`
Result: 1.52
